# MEASURED TARGET: h-P2X4 (Homo sapiens, UniProt Q99571)
# Sequence (Q99571 whole entry): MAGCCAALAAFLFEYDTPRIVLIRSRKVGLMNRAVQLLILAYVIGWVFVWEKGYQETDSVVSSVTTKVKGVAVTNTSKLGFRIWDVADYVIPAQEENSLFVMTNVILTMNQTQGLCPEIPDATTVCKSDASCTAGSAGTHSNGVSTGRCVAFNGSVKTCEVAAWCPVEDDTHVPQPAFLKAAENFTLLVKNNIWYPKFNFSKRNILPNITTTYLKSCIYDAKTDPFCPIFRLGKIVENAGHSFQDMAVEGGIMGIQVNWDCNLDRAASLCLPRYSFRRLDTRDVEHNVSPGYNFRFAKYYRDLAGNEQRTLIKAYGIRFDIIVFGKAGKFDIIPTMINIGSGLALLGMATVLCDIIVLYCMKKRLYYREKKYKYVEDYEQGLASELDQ
# METHOD NOTES: Ca2+ flux assay h-P2X4
# COND: read-out: h-P2X4 % Inhibition
Collected inhibition at 50 µM values appear next to each entry.
The response must be a number in % with no trailing unit.

INSERT INTO assay_data (molecular_string, result) VALUES
  ('CN(C)CCCNC(=S)NC(=O)C12CC3CC(CC(C3)C1)C2', 0);

Tell me measured inhibition at 50 µM for O=C(NC(=S)Nc1ccc(Br)cc1)C12CC3CC(CC(C3)C1)C2 please.
46.8

Determine its reported inhibition at 50 µM: O=C(NC(=S)Nc1cccc2cccnc12)C12CC3CC(CC(C3)C1)C2
25.1

Identify measured inhibition at 50 µM corresponding to COc1ccc(NC(=S)NC(=O)C23CC4CC(CC(C4)C2)C3)cc1
44.9

Answer with the recorded inhibition at 50 µM of COc1cccc(NC(=S)NC(=O)C23CC4CC(CC(C4)C2)C3)c1 only.
38

---

# METHOD NOTES: MTT cytotoxicity assay, human 1321N1 astrocytoma cell line
# Type: cell-based
# COND: human, 1321N1 astrocytoma cells, final concentration of 50 μM
# cutoff 10% applies to cytotoxicity at 24 h, 50 µM; >= gives y, < gives n

INSERT INTO assay_data (molecular_string, label_value) VALUES
  ('COc1cccc(NC(=S)NC(=O)C23CC4CC(CC(C4)C2)C3)c1', 'n'),
  ('O=C(NC(=S)Nc1cccnc1Cl)C12CC3CC(CC(C3)C1)C2', 'y'),
  ('NS(=O)(=O)c1cccc(NC(=S)NC(=O)C23CC4CC(CC(C4)C2)C3)c1', 'y'),
  ('O=C(NC(=S)Nc1cc(Cl)c(O)c(Cl)c1)C12CC3CC(CC(C3)C1)C2', 'n'),
  ('O=C(NC(=S)Nc1ccc(O)cc1)C12CC3CC(CC(C3)C1)C2', 'y');

Entry CC(C)c1ccc(NC(=S)NC(=O)C23CC4CC(CC(C4)C2)C3)c(Br)c1 : is its cytotoxicity at 24 h, 50 µM no less than 10%?
y

Entry O=C(NC(=S)Nc1ccc(Br)cc1)C12CC3CC(CC(C3)C1)C2 : is its cytotoxicity at 24 h, 50 µM no less than 10%?
y

Check this compound for cytotoxicity at 24 h, 50 µM at or above 10%: COc1ccc(NC(=S)NC(=O)C23CC4CC(CC(C4)C2)C3)cc1
n

---

# METHOD NOTES: MTT cytotoxicity assay, HEK-293 cell line
# Format: cell-based
# COND: human, HEK-293 cells, final concentration of 50 μM
MEASUREMENT NAME: cytotoxicity at 24 h, 50 µM
Lab note: write values as number then unit, every time.

INSERT INTO results (compound, result) VALUES
  ('O=C(NC(=S)Nc1cc(Cl)c(O)c(Cl)c1)C12CC3CC(CC(C3)C1)C2 [Id]', '1.06%');

Answer with reported cytotoxicity at 24 h, 50 µM of COc1cccc(NC(=S)NC(=O)C23CC4CC(CC(C4)C2)C3)c1 [Ii]
20.7%

Look up and state reported cytotoxicity at 24 h, 50 µM for O=C(NC(=S)Nc1cccnc1Cl)C12CC3CC(CC(C3)C1)C2 [If]
4.95%

Determine from records and report cytotoxicity at 24 h, 50 µM for Cc1ccc(NC(=S)NC(=O)C23CC4CC(CC(C4)C2)C3)c(Br)c1 [Im]
18.9%

src = patent US20230141034A1
